Tested system: human cathepsin-B (Cat-B) (Homo sapiens)
Construct: purchased Calbiochem, Darmstadt, Germany; host or cells: recombinant
Protocol text: Cathepsin-B inhibition screening
Format: biochemical
Measurement context: over 10 min
Parameter measured: Cat-B Inhibition (%) at 10 µM

molecule=CC[P](CC)(CC)[Au][I] parameter_measured="Cat-B Inhibition (%) at 10 µM" experimental_value="29 ± 1.7%"
molecule=CC[PH](CC)(CC)[Ag][Br] parameter_measured="Cat-B Inhibition (%) at 10 µM" experimental_value=n.i.
molecule="CCP(CC)CC.CCP(CC)CC.O=[N+]([O-])[O-].[Ag+] [[Ag(PEt3)2]NO3]" parameter_measured="Cat-B Inhibition (%) at 10 µM" experimental_value=n.i.

====

Tested system: chymotrypsin-like (ChT-L) activity of human 20S proteasome (Homo sapiens, UniProt P28074)
Construct: 20S proteasome, isolated and purified from human erythrocytes
Protocol text: Inhibition of chymotrypsin-like activity of 20S proteasome (Suc-Leu-Leu-Val-Tyr-AMC)
Measurement context: 10 min, no pre-incubation, 30 °C
pIC50: −log10 of the molar value.
Each entry below lists one item and its recorded pIC50 value.
Parameter measured: pIC50

compound="CC[P](CC)(CC)[Au][I] [Au(PEt3)I]" experimental_value=5.21
compound="CCP(CC)CC.[Br][Au] [Au(PEt3)Br]" experimental_value=5.85
compound="CCP(CC)CC.[Au+].[Cl-] [Au(PEt3)Cl]" experimental_value=5.59

====

Tested system: human cathepsin-B (Cat-B) (Homo sapiens, UniProt P07858)
Construct: purchased Calbiochem, Darmstadt, Germany; host or cells: recombinant
Protocol text: Cathepsin-B inhibition screening
Format: biochemical
Measurement context: over 10 min
Parameter measured: Cat-B Inhibition (%) at 10 µM

smiles_representation=CC[PH](CC)(CC)[Ag][Cl] parameter_measured="Cat-B Inhibition (%) at 10 µM" experimental_value=n.i.
smiles_representation=CC[PH](CC)(CC)[Ag][I] parameter_measured="Cat-B Inhibition (%) at 10 µM" experimental_value=n.i.
smiles_representation=CC(=O)OC[C@H]1O[C@@H]([S-])[C@H](OC(C)=O)[C@@H](OC(C)=O)[C@@H]1OC(C)=O.CCP(CC)CC.[Au+] parameter_measured="Cat-B Inhibition (%) at 10 µM" experimental_value=n.i.
